src = ChEMBL document CHEMBL1123973

Test: physchem
Conditions: S
Listing of entries alongside the reported solubility.

[
  {
    "Compound": "CC(C)CC(NC(=O)[C@H](Cc1cnc[nH]1)NC(=O)[C@H](Cc1ccccc1)NC(=O)OC(C)(C)C)C(O)CC(=O)N[C@@H](CC(C)C)C(=O)NCc1cccc(CN)c1 (stereo not given in full)",
    "Comparative sign": "=",
    "solubility [mM]": 0.88
  },
  {
    "Compound": "CC(C)CC(NC(=O)[C@H](Cc1c[nH]cn1)NC(=O)[C@H](Cc1ccccc1)NC(=O)OC(C)(C)C)C(O)CC(=O)N[C@@H](CC(C)C)C(=O)NCCN=C(N)N (stereo not given in full)",
    "Comparative sign": "=",
    "solubility [mM]": 24
  },
  {
    "Compound": "CC(C)CC(NC(=O)[C@H](Cc1c[nH]cn1)NC(=O)[C@H](Cc1ccccc1)NC(=O)OC(C)(C)C)C(O)CC(=O)N[C@@H](CC(C)C)C(=O)NCCS(=O)(=O)O (stereo not given in full)",
    "Comparative sign": ">",
    "solubility [mM]": 11
  },
  {
    "Compound": "CC(C)CC(NC(=O)[C@H](Cc1cnc[nH]1)NC(=O)[C@H](Cc1ccccc1)NC(=O)OC(C)(C)C)C(O)CC(=O)N[C@@H](CC(C)C)C(=O)NCCCN(CCO)CCO (stereo not given in full)",
    "Comparative sign": "=",
    "solubility [mM]": 0.96
  },
  {
    "Compound": "CC(C)CC(NC(=O)[C@H](Cc1c[nH]cn1)NC(=O)[C@H](Cc1ccccc1)NC(=O)OC(C)(C)C)C(O)CC(=O)N[C@@H](CC(C)C)C(=O)NCCC(N)C(=O)O (stereo in doubt; 17)",
    "Comparative sign": "=",
    "solubility [mM]": 3.4
  }
]

###

Listing of entries alongside the reported logD.
Assay: Partition coefficient (logD) (octanol/citric acid-phosphate buffer)

[
  {
    "Compound": "CC(C)CC(NC(=O)[C@H](Cc1cnc[nH]1)NC(=O)[C@H](Cc1ccccc1)NC(=O)OC(C)(C)C)C(O)CC(=O)N[C@@H](CC(C)C)C(=O)NCCN (stereo partly specified)",
    "logD": 0.949
  },
  {
    "Compound": "CC(C)C[C@H](NC(=O)CC(O)C(CC1CCCCC1)NC(=O)[C@H](Cc1cnc[nH]1)NC(=O)[C@H](Cc1ccccc1)NC(=O)OC(C)(C)C)C(=O)NCc1cccc(OCC(=O)O)c1 (stereo partly specified)",
    "logD": "> 2"
  },
  {
    "Compound": "CC(C)C[C@H](NC(=O)CC(O)C(CC1CCCCC1)NC(=O)[C@H](Cc1cnc[nH]1)NC(=O)[C@H](Cc1ccccc1)NC(=O)OC(C)(C)C)C(=O)NCc1ccncc1 (stereo partly specified)",
    "logD": "> 2"
  },
  {
    "Compound": "CC(C)CC(NC(=O)[C@H](Cc1cnc[nH]1)NC(=O)[C@H](Cc1ccccc1)NC(=O)OC(C)(C)C)C(O)CC(=O)N[C@@H](CC(C)C)C(=O)NCc1cccc(OCC(=O)O)c1 (stereo partly specified)",
    "logD": "> 2"
  },
  {
    "Compound": "CC(C)CC(NC(=O)[C@H](Cc1c[nH]cn1)NC(=O)[C@H](Cc1ccccc1)NC(=O)OC(C)(C)C)C(O)CC(=O)N[C@@H](CC(C)C)C(=O)NCCC(N)C(=O)O (stereo in doubt; 17)",
    "logD": 1.03
  },
  {
    "Compound": "CC(C)CC(NC(=O)[C@H](Cc1cnc[nH]1)NC(=O)[C@H](Cc1ccccc1)NC(=O)OC(C)(C)C)C(O)CC(=O)N[C@@H](CC(C)C)C(=O)NCc1cccc(CN=C(N)N)c1 (stereo partly specified)",
    "logD": 1.03
  }
]

###

Experiment: physchem
Settings: S
*1 amine or outer side, *2 acyl side, *3 side chain or, on linkers, in order; H or OH if unused. Where a SMILES comes first, the peptide text is derived from it. [ ]: non-standard residue; d: D form. The star is where a group is joined. ξ: configuration not given here. Sta = CC(C)C[C@H](N)[C@@H](O)CC(=O)O; X1 = CC(C)CC(N[*:1])C(O)CC(=O)[*:2]; ξPhg = NC(C(=O)O)c1ccccc1; Boc = CC(C)(C)OC(=O)*; NHBn = c1ccc(CN*)cc1

[
  {
    "Compound": "CC(C)C[C@H](NC(=O)C[C@H](O)[C@H](CC(C)C)NC(=O)[C@H](Cc1c[nH]cn1)NC(=O)[C@H](Cc1ccccc1)NC(=O)OC(C)(C)C)C(=O)NCc1ccccc1 (Boc-FH[Sta]L-NHBn)",
    "Comparative sign": "<",
    "solubility, µM": 10
  },
  {
    "Compound": "CC(C)CC(NC(=O)[C@H](Cc1cnc[nH]1)NC(=O)[C@H](Cc1ccccc1)NC(=O)OC(C)(C)C)C(O)CC(=O)N[C@@H](CC(C)C)C(=O)NCc1cccc(CN=C(N)N)c1 (stereo partly specified)",
    "Comparative sign": "=",
    "solubility, µM": 3000
  },
  {
    "Compound": "CC(C)CC(NC(=O)[C@H](Cc1c[nH]cn1)NC(=O)[C@H](Cc1ccccc1)NC(=O)OC(C)(C)C)C(O)CC(=O)N[C@@H](CC(C)C)C(=O)NC(C(=O)O)c1ccccc1 (stereo partly specified) (Boc-FH[X1]L[ξPhg]-OH)",
    "Comparative sign": "=",
    "solubility, µM": 740
  },
  {
    "Compound": "CC(C)CC(NC(=O)[C@H](Cc1c[nH]cn1)NC(=O)[C@H](Cc1ccccc1)NC(=O)OC(C)(C)C)C(O)CC(=O)N[C@@H](CC(C)C)C(=O)NCC(N)c1ccccn1 (stereo partly specified)",
    "Comparative sign": "=",
    "solubility, µM": 890
  },
  {
    "Compound": "CC(C)CC(NC(=O)[C@H](Cc1cnc[nH]1)NC(=O)[C@H](Cc1ccccc1)NC(=O)OC(C)(C)C)C(O)CC(=O)N[C@@H](CC(C)C)C(=O)NCc1cccc(OCC(=O)O)c1 (stereo partly specified)",
    "Comparative sign": "=",
    "solubility, µM": 270
  },
  {
    "Compound": "CC(C)CC(NC(=O)[C@H](Cc1c[nH]cn1)NC(=O)[C@H](Cc1ccccc1)NC(=O)OC(C)(C)C)C(O)CC(=O)N[C@@H](CC(C)C)C(=O)N1CCN(Cc2ccccc2)CC1 (stereo partly specified)",
    "Comparative sign": "<",
    "solubility, µM": 10
  },
  {
    "Compound": "CC(C)C[C@H](NC(=O)CC(O)C(CC1CCCCC1)NC(=O)[C@H](Cc1cnc[nH]1)NC(=O)[C@H](Cc1ccccc1)NC(=O)OC(C)(C)C)C(=O)NCc1cccc(OCC(=O)O)c1 (stereo partly specified)",
    "Comparative sign": "=",
    "solubility, µM": 30
  },
  {
    "Compound": "CC(C)CC(NC(=O)[C@H](Cc1cnc[nH]1)NC(=O)[C@H](Cc1ccccc1)NC(=O)OC(C)(C)C)C(O)CC(=O)N[C@@H](CC(C)C)C(=O)NCCN (stereo partly specified)",
    "Comparative sign": "=",
    "solubility, µM": 2600
  },
  {
    "Compound": "CC(C)C[C@H](NC(=O)CC(O)C(CC1CCCCC1)NC(=O)[C@H](Cc1c[nH]cn1)NC(=O)[C@H](Cc1ccccc1)NC(=O)OC(C)(C)C)C(=O)NCc1cccc(CN=C(N)N)c1 (stereo partly specified)",
    "Comparative sign": ">",
    "solubility, µM": 250
  },
  {
    "Compound": "CC(C)C[C@H](NC(=O)C[C@H](O)[C@H](CC(C)C)NC(=O)[C@H](Cc1c[nH]cn1)NC(=O)[C@H](Cc1ccccc1)NC(=O)OC(C)(C)C)C(=O)N[C@@H](Cc1ccccc1)C(N)=O (Boc-FH[Sta]LF-NH2)",
    "Comparative sign": "<",
    "solubility, µM": 20
  },
  {
    "Compound": "CC(C)CC(NC(=O)[C@H](Cc1c[nH]cn1)NC(=O)[C@H](Cc1ccccc1)NC(=O)OC(C)(C)C)C(O)CC(=O)N[C@@H](CC(C)C)C(=O)NCc1ccncc1 (stereo partly specified)",
    "Comparative sign": "=",
    "solubility, µM": 440
  }
]

###

Biological target: Renin (Homo sapiens)
Sequence (P00797 whole entry): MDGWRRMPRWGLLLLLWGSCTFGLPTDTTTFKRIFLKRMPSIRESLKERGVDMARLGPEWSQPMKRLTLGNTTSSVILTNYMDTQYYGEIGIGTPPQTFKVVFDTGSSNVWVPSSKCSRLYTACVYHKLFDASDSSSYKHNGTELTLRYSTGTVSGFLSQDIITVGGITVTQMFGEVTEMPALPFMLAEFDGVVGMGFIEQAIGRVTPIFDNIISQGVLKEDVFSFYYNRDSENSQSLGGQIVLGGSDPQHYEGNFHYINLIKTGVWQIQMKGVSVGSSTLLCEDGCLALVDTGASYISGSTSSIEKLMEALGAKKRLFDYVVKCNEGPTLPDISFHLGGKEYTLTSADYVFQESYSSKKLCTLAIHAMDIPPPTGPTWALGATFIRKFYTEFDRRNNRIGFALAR
Test: Concentration required for 50% inhibition of human plasma renin
Readout: log10 IC50 (log10 of the value in nM)

[
  {
    "Molecule": "CC(C)CC(NC(=O)[C@H](Cc1cnc[nH]1)NC(=O)[C@H](Cc1ccccc1)NC(=O)OC(C)(C)C)C(O)CC(=O)N[C@@H](CC(C)C)C(=O)NCCCN(CCO)CCO (stereo partly specified)",
    "log10 IC50": 2.23
  },
  {
    "Molecule": "CC(C)CC(NC(=O)[C@H](Cc1cnc[nH]1)NC(=O)[C@H](Cc1ccccc1)NC(=O)OC(C)(C)C)C(O)CC(=O)N[C@@H](CC(C)C)C(=O)NCCN (stereo partly specified)",
    "log10 IC50": 2.15
  },
  {
    "Molecule": "CC(C)CC(NC(=O)[C@H](Cc1c[nH]cn1)NC(=O)[C@H](Cc1ccccc1)NC(=O)OC(C)(C)C)C(O)CC(=O)N[C@@H](CC(C)C)C(=O)N1CCN(Cc2ccccc2)CC1 (stereo partly specified)",
    "log10 IC50": 2.10
  },
  {
    "Molecule": "CC(C)CC(NC(=O)[C@H](Cc1cnc[nH]1)NC(=O)[C@H](Cc1ccccc1)NC(=O)OC(C)(C)C)C(O)CC(=O)N[C@@H](CC(C)C)C(=O)NCc1cccc(CN)c1 (stereo partly specified)",
    "log10 IC50": 0.95
  },
  {
    "Molecule": "CC(C)CC(NC(=O)[C@H](Cc1c[nH]cn1)NC(=O)[C@H](Cc1ccccc1)NC(=O)OC(C)(C)C)C(O)CC(=O)N[C@@H](CC(C)C)C(=O)NC(Cc1cccc(CN)c1)C(=O)O (stereo partly specified)",
    "log10 IC50": 2.94
  },
  {
    "Molecule": "CC(C)CC(NC(=O)[C@H](Cc1c[nH]cn1)NC(=O)[C@H](Cc1ccccc1)NC(=O)OC(C)(C)C)C(O)CC(=O)N[C@@H](CC(C)C)C(=O)NCCN=C(N)N (stereo partly specified)",
    "log10 IC50": 1.81
  }
]
